target-entity: CYP2C19 (Homo sapiens, UniProt P33261)
Construct: using mixed human liver microsomes and human primary hepatocytes as the in vitro; from tissue; host or cells: mixed (pooled) human liver microsomes
Sequence (P33261 whole entry): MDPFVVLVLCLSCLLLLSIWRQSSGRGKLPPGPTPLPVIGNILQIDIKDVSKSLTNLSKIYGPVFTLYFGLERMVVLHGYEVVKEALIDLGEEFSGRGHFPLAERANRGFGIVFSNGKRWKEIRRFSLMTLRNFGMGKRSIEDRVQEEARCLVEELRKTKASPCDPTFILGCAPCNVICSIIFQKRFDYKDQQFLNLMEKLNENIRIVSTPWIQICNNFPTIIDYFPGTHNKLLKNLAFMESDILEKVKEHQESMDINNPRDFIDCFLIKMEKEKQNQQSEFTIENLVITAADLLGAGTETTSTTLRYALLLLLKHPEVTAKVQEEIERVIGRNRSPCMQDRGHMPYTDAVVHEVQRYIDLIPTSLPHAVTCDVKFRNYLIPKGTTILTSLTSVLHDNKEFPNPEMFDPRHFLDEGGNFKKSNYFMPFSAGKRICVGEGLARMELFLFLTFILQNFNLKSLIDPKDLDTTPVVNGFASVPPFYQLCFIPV
Assay type: in vitro ADME
stated-conditions: microsomes
Where a name gives a salt, the structure may show the parent alone.
readout-name: IC50

Provide CYP2C19 (Homo sapiens, UniProt P33261) IC50 reading for N#CCNC(=O)c1ccc(-c2ccnc(Nc3ccc(N4CCOCC4)cc3)n2)cc1 [ZG0128, Jaktinib Dihydrochloride Monohydrate] .
> 100 µM
